Hello, the source for this data is the supplement of paper PMC9233669, in case you need it.

Would you kindly list self-aminoacylation for each of these sequences?
Test system: biotinyl-Leu-oxazolone
ASSAY SUMMARY: self-aminoacylation, catalytic enhancement (BLO) (fold over background); higher = more active; k-Seq, kA / k0A0; sequences stand for … in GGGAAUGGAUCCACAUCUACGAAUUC…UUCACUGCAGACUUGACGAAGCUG
Fewer inactive variants are shown than the library holds.
Give the value as a plain number.

Query string: Can you look up the measured self-aminoacylation of AUUAACCUAGGUCAUCGGGGG [Fam2.2 aminoacylation ribozyme variant] for me?
Result string: 3.88

Query string: # self-aminoacylation lookup, item AUUACCCUUGUUAUCGAGUGA [Fam2.1 aminoacylation ribozyme variant]
Result string: 14.7

Query string: // query self-aminoacylation value for entry CAGUUUGCUAAUAGGCGCAAG [Fam3.1 aminoacylation ribozyme variant]
Result string: 1.35

Query string: # get_value(readout='self-aminoacylation', item= AUUCGCCUAGCUCAUCGGGUG [Fam2.2 aminoacylation ribozyme variant] )
Result string: 2.99

Query string: Recorded self-aminoacylation for AAGUUUGCUAAUAGUCUAAAG [Fam3.1 aminoacylation ribozyme variant] , please?
Result string: 0.882

Query string: Return reported self-aminoacylation; argument: AAGUUUGCUAAAAGCCGCAAG [Fam3.1 aminoacylation ribozyme variant]
Result string: 0.63

Query string: self-aminoacylation for UCACACUUCAAACAAUCGGUC [Fam1B.1 aminoacylation ribozyme variant] ?
Result string: 2.25

Query string: So what's the measured self-aminoacylation for this one? AUUAAACUGGUCAUCGAGUGA [Fam2.1 aminoacylation ribozyme variant]
Result string: 4.35

Query string: Quick check: self-aminoacylation of AGUGCCCUGGUCAUCGAGUGA [Fam2.1 aminoacylation ribozyme variant] ?
Result string: 14.5

Query string: Look at this sequence and give its reported self-aminoacylation. AUUACCCUGCUCAUUGAGUGA [Fam2.1 aminoacylation ribozyme variant]
Result string: 4.39

Query string: Using the record for CCAUACUUCAAGCAAUCGGUG [Fam1B.1 aminoacylation ribozyme variant] , report its self-aminoacylation.
Result string: 8.33

Query string: Requested field: self-aminoacylation. Item: AUUGCCCUUGUCAUCGAGUGA [Fam2.1 aminoacylation ribozyme variant]
Result string: 7.02

Query string: Sample CGACUUCAAACAAUCGGGCUG [Fam1A.1 aminoacylation ribozyme variant] — what was its self-aminoacylation?
Result string: 2.34

Query string: Query: self-aminoacylation; subject: AAGUGUGCUAAUAGUCGCCAG [Fam3.1 aminoacylation ribozyme variant]
Result string: 2.2

Query string: Param item = AUUACCCUGCUAAUCGAGUGA [Fam2.1 aminoacylation ribozyme variant] ; retrieve measured self-aminoacylation.
Result string: 2.41

Query string: Consider the sequence shown here: AAGUUUACUUAUAGUCGCAAG [Fam3.1 aminoacylation ribozyme variant] What is its recorded self-aminoacylation?
Result string: 1.39

Query string: Reported self-aminoacylation for UUACUUCAGACAAUCGGUCUG [Fam1A.1 aminoacylation ribozyme variant] : what is it?
Result string: 1.3

Query string: Given the entry AAGUCUGCUAAUAGCCGCAAG [Fam3.1 aminoacylation ribozyme variant] , report its measured self-aminoacylation.
Result string: 0.989

###

Tested on: biotinyl-Leu-oxazolone
ASSAY SUMMARY: self-aminoacylation, catalytic enhancement (BLO) (fold over background); higher = more active; k-Seq, kA / k0A0; sequences stand for … in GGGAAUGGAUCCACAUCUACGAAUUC…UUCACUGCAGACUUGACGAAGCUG
Fewer inactive variants are shown than the library holds.
Field: self-aminoacylation. Provide a value for each of the sequences that follow.
// return a plain number; no unit text

Query string: Form field - read-out: self-aminoacylation; system: biotinyl-Leu-oxazolone; submitted item: CCACACUUCAAGUACUCGGUC [Fam1B.1 aminoacylation ribozyme variant]
Result string: 0.875

Query string: Return self-aminoacylation measured with biotinyl-Leu-oxazolone given this sequence: ACUCACCUAGGUCAUAGGGUG [Fam2.2 aminoacylation ribozyme variant]
Result string: 1.39

Query string: Find self-aminoacylation (biotinyl-Leu-oxazolone) for the entry AUUACCCUGUUCAGCGAGUGA [Fam2.1 aminoacylation ribozyme variant]
Result string: 4.4

Query string: Identify the measured self-aminoacylation of AUUACACUGAUCAUCGAGUGA [Fam2.1 aminoacylation ribozyme variant] for biotinyl-Leu-oxazolone.
Result string: 6.95

Query string: Entry UUUCACCUAGGUCAUCGGGAG [Fam2.2 aminoacylation ribozyme variant] , system biotinyl-Leu-oxazolone: what self-aminoacylation was measured?
Result string: 1.82

Query string: Record lookup: for biotinyl-Leu-oxazolone, what self-aminoacylation belongs to AUUCACCUAGGUCCUCGGGAG [Fam2.2 aminoacylation ribozyme variant] ?
Result string: 2.11

Query string: Param readout= self-aminoacylation; system= biotinyl-Leu-oxazolone; entry= CUUCUUCAAUCAAUCGGUCUG [Fam1A.1 aminoacylation ribozyme variant] ; returns value.
Result string: 1.21

Query string: Test system biotinyl-Leu-oxazolone; read-out self-aminoacylation; what value for AUUCAGCUAGGUCCUCGGGUG [Fam2.2 aminoacylation ribozyme variant] ?
Result string: 9.02

Query string: Give recorded self-aminoacylation with biotinyl-Leu-oxazolone for the following sequence: AGUCACCUAGGUCAUCGGAUG [Fam2.2 aminoacylation ribozyme variant]
Result string: 1.18

Query string: Query the reported self-aminoacylation for biotinyl-Leu-oxazolone; item: AUUACCCUUGACAUCGAGUGA [Fam2.1 aminoacylation ribozyme variant]
Result string: 11

Query string: Form entry - test system: biotinyl-Leu-oxazolone; read-out: self-aminoacylation; sequence: AAGUUUGCUAAUAGUCACAAU [Fam3.1 aminoacylation ribozyme variant]
Result string: 0.82

Query string: Lab note: need self-aminoacylation for AGACACCUAGGUCAUCGGGUG [Fam2.2 aminoacylation ribozyme variant] on biotinyl-Leu-oxazolone, anyone have it?
Result string: 3.29

Query string: API: value(readout= self-aminoacylation, system= biotinyl-Leu-oxazolone, query= AUUCACCUAGGUCAUUGGGUU [Fam2.2 aminoacylation ribozyme variant] )
Result string: 1.15

Query string: Give recorded self-aminoacylation with biotinyl-Leu-oxazolone for the following sequence: AUUCACUUAGGUUAUCGGGUG [Fam2.2 aminoacylation ribozyme variant]
Result string: 4.03

Query string: Give the reported self-aminoacylation for CCACACCGCAAGCAAUCGGUC [Fam1B.1 aminoacylation ribozyme variant] (system: biotinyl-Leu-oxazolone).
Result string: 0.882

Query string: So what self-aminoacylation did AUUUCCCUGGUCAUGGAGUGA [Fam2.1 aminoacylation ribozyme variant] get with biotinyl-Leu-oxazolone?
Result string: 4.22

Query string: Report self-aminoacylation for CCACACUGCAAGCAAUCGAUC [Fam1B.1 aminoacylation ribozyme variant] tested on biotinyl-Leu-oxazolone.
Result string: 0.739

Query string: Query self-aminoacylation on biotinyl-Leu-oxazolone for CUGCUGCAAACAAUCGGUCUG [Fam1A.1 aminoacylation ribozyme variant]
Result string: 1.31

Query string: Query for biotinyl-Leu-oxazolone: what self-aminoacylation does the record show for AUUACCCUGGGCAUCGAUUGA [Fam2.1 aminoacylation ribozyme variant] ?
Result string: 0.749

Query string: Which measured self-aminoacylation belongs to CUACUUCAAACAAUGGGUCUA [Fam1A.1 aminoacylation ribozyme variant] , tested on biotinyl-Leu-oxazolone?
Result string: 0.638

Query string: Item CCACACUUUGAGCAAUCGGUC [Fam1B.1 aminoacylation ribozyme variant] with biotinyl-Leu-oxazolone - self-aminoacylation?
Result string: 0.96

Query string: What self-aminoacylation appears in the records for this sequence with biotinyl-Leu-oxazolone? AUUACCCUGUUCAUCGCGUGA [Fam2.1 aminoacylation ribozyme variant]
Result string: 25.1

Query string: Notebook entry, biotinyl-Leu-oxazolone assay: self-aminoacylation of CAACACUUCAAGCAAUCGGUA [Fam1B.1 aminoacylation ribozyme variant] = ?
Result string: 1.13

Query string: Find self-aminoacylation (biotinyl-Leu-oxazolone) for the entry AUUCGCCUAGGUCAUCUGGUG [Fam2.2 aminoacylation ribozyme variant]
Result string: 3.87

Query string: API: value(readout=self-aminoacylation, system=biotinyl-Leu-oxazolone) for record AUUACCCUGGUCCUCUAGUGA [Fam2.1 aminoacylation ribozyme variant]
Result string: 10.6

Query string: // lookup self-aminoacylation | system=biotinyl-Leu-oxazolone | key= AAGGUUCCUAAUAGUCGCAAG [Fam3.1 aminoacylation ribozyme variant]
Result string: 1.5

Query string: Which self-aminoacylation is reported with biotinyl-Leu-oxazolone for this entry: AUUACCCUGGUCAUCCCGUGA [Fam2.1 aminoacylation ribozyme variant] ?
Result string: 9.66

Query string: Test system biotinyl-Leu-oxazolone; read-out self-aminoacylation; what value for CCACACUUGAGGCAAUCGGUC [Fam1B.1 aminoacylation ribozyme variant] ?
Result string: 1.6

Query string: What is its self-aminoacylation for biotinyl-Leu-oxazolone? Entry: AUUACGCGGGUCAUCGAGUGA [Fam2.1 aminoacylation ribozyme variant]
Result string: 4.86

Query string: Short answer please: self-aminoacylation, biotinyl-Leu-oxazolone, entry UUUCACCUAGGUCAUCGGGCG [Fam2.2 aminoacylation ribozyme variant]
Result string: 5.21

Query string: What self-aminoacylation appears in the records for this sequence with biotinyl-Leu-oxazolone? AUUCACCUAUGUCACCGGGUG [Fam2.2 aminoacylation ribozyme variant]
Result string: 4.89

Query string: # query: self-aminoacylation | item ACUCGCCUAGGUCAUCGGGUG [Fam2.2 aminoacylation ribozyme variant] | system: biotinyl-Leu-oxazolone
Result string: 11

Query string: Notebook: pull reported self-aminoacylation for biotinyl-Leu-oxazolone, entry CCACACUUCAAGCGAUCGGUA [Fam1B.1 aminoacylation ribozyme variant]
Result string: 1.58

Query string: Notebook: pull reported self-aminoacylation for biotinyl-Leu-oxazolone, entry UUUACCCUGGUCAUCGUGUGA [Fam2.1 aminoacylation ribozyme variant]
Result string: 3.11

Query string: Lookup: self-aminoacylation / biotinyl-Leu-oxazolone / AAGUUUGCGAAGAGUCGCAAG [Fam3.1 aminoacylation ribozyme variant]
Result string: 1.04
